- Test system: Caco2 cells
- EXPERIMENT_NOTES: Glucose uptake assay
- Assay type: cell-based, human
- ASSAY_CONDITIONS: compound 1 μM, 48 hours; 25 mM glucose
Listed next: entries and their corresponding Uptake rate (glucose).
Kindly provide the numeric value in nmol/mg/min only, without the unit symbol.

COMPOUND	Uptake rate (glucose) / nmol/mg/min
CC(C)(O)[C@@H]1CC[C@](C)([C@H]2[C@@H](O)C[C@@]3(C)[C@@H]4C[C@H](O[C@@H]5O[C@H](CO)[C@@H](O)[C@H](O)[C@H]5O)[C@H]5C(C)(C)[C@@H](O[C@@H]6OC[C@@H](O)[C@H](O)[C@H]6O)CC[C@@]56C[C@@]46CC[C@]23C)O1 [AS4, astragaloside IV]	9.0020
CC(C)(O)[C@@H]1CC[C@](C)([C@H]2[C@@H](O)C[C@@]3(C)[C@@H]4C[C@H](O[C@@H]5O[C@H](CO)[C@@H](O)[C@H](O)[C@H]5O)[C@H]5C(C)(C)[C@@H](O[C@@H]6OC[C@@H](O)[C@H](O)[C@H]6O[C@@H]6O[C@H](CO)[C@@H](O)[C@H](O)[C@H]6O)CC[C@@]56C[C@@]46CC[C@]23C)O1 [AS6, astragaloside VI]	7.8050
CC(=O)O[C@@H]1[C@@H](O)[C@H](O[C@H]2CC[C@]34C[C@]35CC[C@]3(C)[C@@H]([C@@]6(C)CC[C@@H](C(C)(C)O)O6)[C@@H](O)C[C@@]3(C)[C@@H]5C[C@H](O[C@@H]3O[C@H](CO)[C@@H](O)[C@H](O)[C@H]3O)[C@H]4C2(C)C)OC[C@H]1O [IsoAS2, isoastragaloside II]	6.1520
CC(C)(O)C1CC[C@](C)(C2[C@@H](O)C[C@@]3(C)C4C[C@H](OC5OC(CO)C(O)C(O)C5O)C5C(C)(C)[C@@H](O)CCC56CC46CC[C@]23C)O1 (some centres unmarked)	9.2830

q: Look up Uptake rate (glucose) with Caco2 cells for this compound: CC(=O)OC1C(O)COC(OC2CCC34CC35CCC3(C)C(C6(C)CCC(C(C)(C)O)O6)C(O)CC3(C)C5CC(OC3OC(CO)C(O)C(O)C3O)C4C2(C)C)C1OC(C)=O (centres unmarked) [AS1, astragaloside I]
a: 6.2780

---

- Tested on: Caco-2 cell monolayer
- EXPERIMENT_NOTES: Arginine absorption assay (transport across Caco-2 cell monolayer)
- Format: cell-based, human
- ASSAY_CONDITIONS: compound 0.1 μM
MEASUREMENT_LABEL: Percentage (arginine transport, control = 100)

COMPOUND	OBSERVED_MEASUREMENT
CC(=O)O[C@H]1[C@H](O[C@H]2CC[C@]34C[C@]35CC[C@]3(C)[C@@H]([C@@]6(C)CC[C@@H](C(C)(C)O)O6)[C@@H](O)C[C@@]3(C)[C@@H]5C[C@H](O[C@@H]3O[C@H](CO)[C@@H](O)[C@H](O)[C@H]3O)[C@H]4C2(C)C)OC[C@@H](OC(C)=O)[C@@H]1O [IsoAS1, isoastragaloside I]	199.44%

// next item, Percentage (arginine transport, control = 100) requested
q: Could you tell me which Percentage (arginine transport, control = 100) is on file for CC(C)(O)C1CC[C@](C)(C2[C@@H](O)C[C@@]3(C)C4C[C@H](OC5OC(CO)C(O)C(O)C5O)C5C(C)(C)[C@@H](O)CCC56CC46CC[C@]23C)O1 (stereo partly drawn) [AA, cycloastragenol 6-O-β-D-gluco-pyranose] ?
a: 170.48%
